B1: Subtilisin-chymotrypsin inhibitor-2A, P01053 (parent)
chain: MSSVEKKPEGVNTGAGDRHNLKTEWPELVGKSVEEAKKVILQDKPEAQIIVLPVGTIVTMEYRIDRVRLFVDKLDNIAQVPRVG

Variants of: B1
Settings: Hordeum vulgare; pH 6.25; 25 °C; GdnHCl; Fluorescence; MES 50 mM; reversible: yes; structure 2CI2; whole UniProt chain shown
Respond with met for unfolding free energy values of 7 kcal/mol and above, not met for values below.

For orientation, consider the following solved cases.
[
  {
    "mutation_id": "V58A V80A",
    "assigned_label": "not met"
  },
  {
    "mutation_id": "E34N",
    "assigned_label": "met"
  },
  {
    "mutation_id": "K38A",
    "assigned_label": "not met"
  },
  {
    "mutation_id": "S32G",
    "assigned_label": "met"
  },
  {
    "mutation_id": "L41G",
    "assigned_label": "not met"
  },
  {
    "mutation_id": "V58A F70L",
    "assigned_label": "not met"
  },
  {
    "mutation_id": "E34A E35A",
    "assigned_label": "met"
  },
  {
    "mutation_id": "A36G",
    "assigned_label": "not met"
  },
  {
    "mutation_id": "K44A",
    "assigned_label": "not met"
  },
  {
    "mutation_id": "K31A",
    "assigned_label": "not met"
  }
]

Prompt: Does unfolding free energy meet or surpass 7 kcal/mol for `F70L` ?
Response: not met

Prompt: Answer whether unfolding free energy of L52V F70L is greater than or equal to 7 kcal/mol.
Response: not met

Prompt: unfolding free energy >= 7 kcal/mol for `K37A` ?
Response: not met

Prompt: Decide: is the reported value of unfolding free energy for `L41A` equal to or greater than 7 kcal/mol?
Response: not met

Prompt: Textbook exercise: given the entry `E35N` , state whether its unfolding free energy is greater than or equal to 7 kcal/mol.
Response: met

Prompt: Could you tell me if the measured unfolding free energy of L52V V58A F70L reaches 7 kcal/mol or more?
Response: not met

Prompt: Please tell me: is the variant `K22A` at or over 7 kcal/mol in terms of unfolding free energy?
Response: not met

Prompt: Does unfolding free energy meet or surpass 7 kcal/mol for L52A F70A ?
Response: not met
